Provide the recorded inhibition at 0.2 µM for the entries that follow.
- TARGET_ENTITY: CDK4 (Homo sapiens, UniProt P11802)
- Construct: endogenous in cells; host or cells: Calu-1
- Sequence (P11802 2-303 limits assumed): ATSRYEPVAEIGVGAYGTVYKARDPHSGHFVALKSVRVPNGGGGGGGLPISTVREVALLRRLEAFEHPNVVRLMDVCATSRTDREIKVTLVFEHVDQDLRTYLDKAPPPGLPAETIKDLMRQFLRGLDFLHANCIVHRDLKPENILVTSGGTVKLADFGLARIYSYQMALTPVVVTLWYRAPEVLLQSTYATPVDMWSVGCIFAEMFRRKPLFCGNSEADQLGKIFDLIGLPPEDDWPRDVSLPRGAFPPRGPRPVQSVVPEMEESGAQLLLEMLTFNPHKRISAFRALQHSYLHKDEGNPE
- Sequence (P24385 whole entry partner): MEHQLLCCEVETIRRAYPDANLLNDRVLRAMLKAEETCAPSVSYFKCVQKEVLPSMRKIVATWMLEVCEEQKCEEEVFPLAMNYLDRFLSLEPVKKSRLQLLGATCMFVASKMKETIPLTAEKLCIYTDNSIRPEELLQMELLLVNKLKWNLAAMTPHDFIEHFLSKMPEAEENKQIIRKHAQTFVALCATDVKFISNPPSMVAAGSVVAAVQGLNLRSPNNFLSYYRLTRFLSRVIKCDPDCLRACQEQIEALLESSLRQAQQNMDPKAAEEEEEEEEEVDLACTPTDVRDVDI
- Sequence (Q16531 2-1140 limits assumed, further chain): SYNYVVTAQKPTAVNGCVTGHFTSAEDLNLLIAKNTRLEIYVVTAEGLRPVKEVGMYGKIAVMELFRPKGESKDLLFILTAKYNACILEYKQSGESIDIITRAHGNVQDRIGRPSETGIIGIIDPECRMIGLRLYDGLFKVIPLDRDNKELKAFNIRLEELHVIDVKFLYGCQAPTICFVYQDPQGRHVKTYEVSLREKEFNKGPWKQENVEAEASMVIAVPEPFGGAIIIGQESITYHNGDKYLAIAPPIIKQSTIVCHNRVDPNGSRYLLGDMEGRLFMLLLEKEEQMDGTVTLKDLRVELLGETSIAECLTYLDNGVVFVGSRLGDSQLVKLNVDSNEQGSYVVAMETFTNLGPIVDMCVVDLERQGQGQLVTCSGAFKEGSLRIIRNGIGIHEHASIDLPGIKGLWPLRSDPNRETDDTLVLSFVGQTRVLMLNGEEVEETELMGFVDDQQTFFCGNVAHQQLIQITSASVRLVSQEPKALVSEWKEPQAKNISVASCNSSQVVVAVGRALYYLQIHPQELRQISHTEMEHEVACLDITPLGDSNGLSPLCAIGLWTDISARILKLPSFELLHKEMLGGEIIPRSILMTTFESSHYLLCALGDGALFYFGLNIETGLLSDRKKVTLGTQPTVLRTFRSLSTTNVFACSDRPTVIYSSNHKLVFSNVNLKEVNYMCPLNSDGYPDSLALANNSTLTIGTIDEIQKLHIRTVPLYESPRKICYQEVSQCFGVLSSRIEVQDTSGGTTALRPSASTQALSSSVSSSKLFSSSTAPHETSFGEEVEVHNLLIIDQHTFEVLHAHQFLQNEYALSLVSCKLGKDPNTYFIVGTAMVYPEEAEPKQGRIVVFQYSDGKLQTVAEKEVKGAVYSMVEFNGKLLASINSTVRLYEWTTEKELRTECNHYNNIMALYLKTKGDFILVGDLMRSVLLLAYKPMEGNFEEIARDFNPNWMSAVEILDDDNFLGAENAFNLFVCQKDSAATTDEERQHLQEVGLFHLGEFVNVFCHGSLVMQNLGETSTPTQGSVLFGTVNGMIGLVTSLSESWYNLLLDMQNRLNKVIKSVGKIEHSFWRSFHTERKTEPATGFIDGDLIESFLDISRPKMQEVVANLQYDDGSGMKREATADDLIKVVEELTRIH
- PROCEDURE_SUMMARY: CDK4 percentage degradation in Calu-1 cells (immunoblotting)
- Format: cell-based
- EXPERIMENTAL_CONDITIONS: Calu-1 cells, 200 nM, 16 hours; read-out: CDK4 Degradation (200 nM)

In: Indicate the recorded inhibition at 0.2 µM value for this compound: CC(=O)c1c(C)c2cnc(Nc3ccc(N4CCN(CC(=O)NCCCCCNc5cccc(C(=O)Nc6nc(C)c(C)s6)c5C)CC4)cn3)nc2n(C2CCCC2)c1=O [CPD-100]
Out: < 30%

In: Indicate the recorded inhibition at 0.2 µM value for this compound: CC(=O)c1c(C)c2cnc(Nc3ccc(N4CCN(CC(=O)NCCOCCOCCC(=O)Nc5ccccc5C(=O)Nc5ccc(OC(C)C)nn5)CC4)cn3)nc2n(C2CCCC2)c1=O [CPD-351]
Out: < 30%

In: Indicate the recorded inhibition at 0.2 µM value for this compound: CC(=O)c1c(C)c2cnc(Nc3ccc(N4CCN(CC(=O)NCCCCCCCCCNc5ccccc5C(=O)Nc5nc(C)c(C)s5)CC4)cn3)nc2n(C2CCCC2)c1=O [CPD-268]
Out: 50 to 80%

In: Indicate the recorded inhibition at 0.2 µM value for this compound: CCc1nc(NC(=O)c2ccc(NCCOCCOCCOCCOCCOCCNC(=O)CN3CCN(c4ccc(Nc5ncc6c(C)c(C(C)=O)c(=O)n(C7CCCC7)c6n5)nc4)CC3)cc2C)sc1C [CPD-047]
Out: > 80%

In: Indicate the recorded inhibition at 0.2 µM value for this compound: CC(=O)c1c(C)c2cnc(Nc3ccc(N4CCN(CC(=O)NCCOCCOCCNc5ccc(C)c(C(=O)Nc6nc(C)c(C)s6)c5)CC4)cn3)nc2n(C2CCCC2)c1=O [CPD-089]
Out: 50 to 80%

In: Indicate the recorded inhibition at 0.2 µM value for this compound: CC(=O)c1c(C)c2cnc(Nc3ccc(N4CCN(CC(=O)NCCOCCOCCC(=O)Nc5cc(C)ccc5C(=O)Nc5nc(C)c(C)s5)CC4)cn3)nc2n(C2CCCC2)c1=O [CPD-149]
Out: > 80%

In: Indicate the recorded inhibition at 0.2 µM value for this compound: CC(=O)c1c(C)c2cnc(Nc3ccc(N4CCN(CC(=O)NCCOCCOCCC(=O)Nc5ccccc5CNc5nc(C)c(C)s5)CC4)cn3)nc2n(C2CCCC2)c1=O [CPD-154]
Out: < 30%

In: Indicate the recorded inhibition at 0.2 µM value for this compound: CC(=O)c1c(C)c2cnc(Nc3ccc(N4CCN(CC(=O)NCCOCCOCCC(=O)Nc5ccccc5C(=O)Nc5ccc(C(F)(F)F)cn5)CC4)cn3)nc2n(C2CCCC2)c1=O [CPD-084]
Out: 50 to 80%

In: Indicate the recorded inhibition at 0.2 µM value for this compound: CC(=O)c1c(C)c2cnc(Nc3ccc(N4CCN(CC(=O)NCCNc5ccc(C)c(C(=O)Nc6nc(C)c(C)s6)c5)CC4)cn3)nc2n(C2CCCC2)c1=O [CPD-093]
Out: < 30%

In: Indicate the recorded inhibition at 0.2 µM value for this compound: COc1cnc(NC(=O)c2ccc(NCCOCCOCCOCCOCCOCCNC(=O)CN3CCN(c4ccc(Nc5ncc6c(C)c(C(C)=O)c(=O)n(C7CCCC7)c6n5)nc4)CC3)cc2C)s1 [CPD-030]
Out: 30 to 50%

In: Indicate the recorded inhibition at 0.2 µM value for this compound: CC(=O)c1c(C)c2cnc(Nc3ccc(N4CCN(CC(=O)NCCOCCOCCC(=O)Nc5ccccc5C(=O)Nc5ccc(C)nc5)CC4)cn3)nc2n(C2CCCC2)c1=O [CPD-060]
Out: 50 to 80%

In: Indicate the recorded inhibition at 0.2 µM value for this compound: CC(=O)c1c(C)c2cnc(Nc3ccc(N4CCN(CC(=O)NCCCCCNC(=O)CNc5ccc(C(=O)Nc6ncc(C)s6)c(C)c5)CC4)cn3)nc2n(C2CCCC2)c1=O [CPD-015]
Out: < 30%

In: Indicate the recorded inhibition at 0.2 µM value for this compound: CC(=O)c1c(C)c2cnc(Nc3ccc(N4CCN(CC(=O)NCCCCCNC(=O)c5ccc(C(=O)Nc6ncc(C)s6)c(C)c5)CC4)cn3)nc2n(C2CCCC2)c1=O [CPD-009]
Out: < 30%

In: Indicate the recorded inhibition at 0.2 µM value for this compound: CC(=O)c1c(C)c2cnc(Nc3ccc(N4CCN(CC(=O)NCCCCCCCNC(=O)CNc5ccc(C(=O)Nc6ncc(C)s6)c(C)c5)CC4)cn3)nc2n(C2CCCC2)c1=O [CPD-016]
Out: < 30%

In: Indicate the recorded inhibition at 0.2 µM value for this compound: COc1ccc(NC(=O)c2cccc(NCCOCCOCCNC(=O)CN3CCN(c4ccc(Nc5ncc6c(C)c(C(C)=O)c(=O)n(C7CCCC7)c6n5)nc4)CC3)c2C)nn1 [CPD-341]
Out: < 30%

In: Indicate the recorded inhibition at 0.2 µM value for this compound: COc1ccc(NC(=O)c2ccc(N(C)C)cc2NC(=O)CCOCCOCCNC(=O)CN2CCN(c3ccc(Nc4ncc5c(C)c(C(C)=O)c(=O)n(C6CCCC6)c5n4)nc3)CC2)nn1 [CPD-365]
Out: > 80%

Cited source for all entries: patent US20250235543A1
